# Lookup of reported pKi keyed by entry
Target: Muscarinic acetylcholine receptor M5 (Homo sapiens, UniProt P08912)
Sequence (P08912 whole entry): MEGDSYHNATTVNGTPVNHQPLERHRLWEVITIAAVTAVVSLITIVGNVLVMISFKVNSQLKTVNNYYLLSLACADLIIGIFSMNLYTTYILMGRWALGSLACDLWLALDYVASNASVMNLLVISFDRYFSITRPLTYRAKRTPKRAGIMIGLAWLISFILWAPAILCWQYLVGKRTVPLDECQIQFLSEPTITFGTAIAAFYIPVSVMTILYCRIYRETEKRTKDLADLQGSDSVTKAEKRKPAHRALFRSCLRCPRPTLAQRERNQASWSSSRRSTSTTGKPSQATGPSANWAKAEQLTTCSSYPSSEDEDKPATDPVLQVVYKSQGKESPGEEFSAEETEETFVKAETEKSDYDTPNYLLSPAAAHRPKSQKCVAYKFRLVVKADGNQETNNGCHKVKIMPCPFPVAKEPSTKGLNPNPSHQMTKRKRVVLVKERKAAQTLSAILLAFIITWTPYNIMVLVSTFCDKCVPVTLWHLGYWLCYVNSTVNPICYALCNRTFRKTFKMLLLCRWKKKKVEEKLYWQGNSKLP
Please keep in mind that pKi is minus log10 of the molar concentration; only the number is needed.

>>> result_number("CN1[C@@H]2CC[C@H]1C[C@H](OC(=O)N(c1ccccc1)c1ccccc1)C2")
7.12

Return pKi (reported value) for this compound: c1ccc(-n2c(O[C@H]3CN4CCC3CC4)nc3ccccc32)cc1 8.59

Specify pKi for CN1[C@@H]2CC[C@H]1C[C@H](Oc1nc3ccccc3n1-c1ccccc1)C2 and stop. 8.09

# return recorded pKi for input CN1[C@@H]2C[C@@H](Oc3nc4ccccc4n3-c3ccccc3)C[C@H]1[C@@H]1O[C@@H]12 6.79

Return value of pKi for input CN1CCC(Oc2nc3ccccc3n2-c2ccccc2)CC1 , no commentary. 7.74
